System: Caupolican (Caup) homeodomain DNA-binding domain
Sequence: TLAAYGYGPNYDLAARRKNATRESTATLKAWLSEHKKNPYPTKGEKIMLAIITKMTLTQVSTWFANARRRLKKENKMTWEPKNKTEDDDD
Assay: PBM E-score (8-mer, recovered from the published 9-mer minima) (E-score (dimensionless, -0.5 to 0.5)); higher = stronger relative binding preference, active = 0.31 or more
This excerpt belongs to a sample that is enriched for hits. The hit rate among all sequences tested is not known here.
Could you please pick one outcome from this set? 1.0 for active, 0.0 for inactive

Below are worked cases with known answers.
>>> label_class("TAAAAAGA")
0.0
>>> label_class("AGCTAGTA")
0.0
>>> label_class("GGGGTACA")
0.0
>>> label_class("CACCCGAA")
0.0
>>> label_class("ACAAGACG")
0.0

Then there is this sequence:
Task item: Would you mind telling me which call this test gave CAACTCAC ?
Reply: 0.0

====

Listed below: PBM E-score values for each entry.
System: Caupolican (Caup) homeodomain DNA-binding domain
Sequence: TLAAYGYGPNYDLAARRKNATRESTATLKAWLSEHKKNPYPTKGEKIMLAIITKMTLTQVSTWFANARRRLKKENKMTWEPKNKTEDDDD
Experiment: PBM E-score (8-mer, recovered from the published 9-mer minima) (E-score (dimensionless, -0.5 to 0.5)); higher = stronger relative binding preference, active = 0.31 or more
The full list was thinned out, with hits kept by preference. The true hit rate is not given.

Study these solved cases before continuing.
>>> measurement("AAATGTCC")
"0.126 (inactive)"
>>> measurement("ATCCCGAC")
"-0.0204 (inactive)"
>>> measurement("CAACAATG")
"0.323 (active)"

Let us examine a further case.
Considering AAGTTTGC , its PBM E-score with Caupolican (Caup) homeodomain DNA-binding domain was recorded as 0.0221 (inactive)

====

Tested on: Caupolican (Caup) homeodomain DNA-binding domain
Sequence: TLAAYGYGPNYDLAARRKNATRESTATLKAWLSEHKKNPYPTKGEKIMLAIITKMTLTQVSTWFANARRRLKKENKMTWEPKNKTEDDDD
Experiment: PBM E-score (8-mer, recovered from the published 9-mer minima) (E-score (dimensionless, -0.5 to 0.5)); higher = stronger relative binding preference, active = 0.31 or more
This is one part of a sample in which hits are shown more often than they occur. The true hit rate is not given.
Hello, when you answer, please use one of the following outcomes: active, inactive

Examples with answers:
>>> label_class("AGACCGGG")
"inactive"
>>> label_class("ATCCGCGG")
"inactive"
>>> label_class("AAGTTATG")
"inactive"
>>> label_class("ACCGGGCC")
"inactive"
>>> label_class("CGGGAGCA")
"inactive"

Task item: Could you please tell me the result logged for AGCCATAA in this assay?
Reply: inactive

Task item: Test call for this sequence, please: AACGTACA
Reply: active

Task item: Which outcome did this test record for the sequence AAGTTATA ?
Reply: inactive

Task item: What outcome does the record of this test show for CATGTCCA ?
Reply: active

====

Tested on: Caupolican (Caup) homeodomain DNA-binding domain
Sequence: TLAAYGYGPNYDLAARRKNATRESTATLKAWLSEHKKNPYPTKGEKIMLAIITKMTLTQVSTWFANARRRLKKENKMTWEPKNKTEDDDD
Assay: PBM E-score (8-mer, recovered from the published 9-mer minima) (E-score (dimensionless, -0.5 to 0.5)); higher = stronger relative binding preference, active = 0.31 or more
Many of the other results were omitted from the sample, so hits are more common in it than they were. The true hit rate is not given.
Give your call using only these classes: yes (1) for active, no (0) for inactive

Illustrative cases are given below, each with its answer.
>>> label_class("CTGTCCCC")
"no (0)"
>>> label_class("GACACGAA")
"no (0)"
>>> label_class("GACATCGA")
"no (0)"
>>> label_class("ATGATGGA")
"no (0)"
>>> label_class("CACATCGA")
"no (0)"

Task item: Outcome logged for CTGTGTAA in this assay:
Reply: no (0)

Task item: Which outcome was assigned to GAAGAGGA in this test?
Reply: no (0)

Task item: Assay outcome for GACGTGAA : what was it?
Reply: no (0)

Task item: Which outcome was assigned to CCGCTACC in this test?
Reply: no (0)

Task item: Fill in: this test's call for CAATGACC is ___
Reply: no (0)

Task item: What classification did CTGATGTA end up with in this test?
Reply: no (0)

Task item: I would be grateful if you could indicate the recorded call for ATTTGTAG .
Reply: no (0)

Task item: Tell me the recorded outcome of this test for GCCTCACC .
Reply: no (0)

Task item: Test call, this sequence: TAGTTTAA
Reply: no (0)

Task item: I would be grateful if you could indicate the recorded call for CTCTAGGC .
Reply: no (0)

Task item: Hi, do you know how CCGATAAC came out in this test?
Reply: no (0)

Task item: Outcome logged for ATGTGTAA in this assay:
Reply: yes (1)

Task item: Test call for this sequence, please: ACACCAGT
Reply: no (0)

Task item: How did this test come out for CAACATCC ?
Reply: no (0)

Task item: Test call for this sequence, please: ATTACAAT
Reply: no (0)

Task item: For this sequence, state the assay outcome: ATTAGTTC
Reply: no (0)

====

Tested on: Caupolican (Caup) homeodomain DNA-binding domain
Sequence: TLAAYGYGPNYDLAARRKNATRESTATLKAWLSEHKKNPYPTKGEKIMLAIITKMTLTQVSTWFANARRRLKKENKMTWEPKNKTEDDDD
Experiment: PBM E-score (8-mer, recovered from the published 9-mer minima) (E-score (dimensionless, -0.5 to 0.5)); higher = stronger relative binding preference, active = 0.31 or more
This excerpt belongs to a sample that is enriched for hits. No count for the full screen is at hand.
OBSERVATION TYPE: PBM E-score

>>> measurement("CTTTGACA")
"0.223 (inactive)"
>>> measurement("ATGTATCG")
"0.337 (active)"
>>> measurement("AATGTTAC")
"0.277 (inactive)"
>>> measurement("AAAGGTGC")
"-0.0982 (inactive)"

Turning to the following sequence.
// PBM E-score lookup, sequence = GGATACCC , result: -0.15 (inactive)

====

Test system: Caupolican (Caup) homeodomain DNA-binding domain
Sequence: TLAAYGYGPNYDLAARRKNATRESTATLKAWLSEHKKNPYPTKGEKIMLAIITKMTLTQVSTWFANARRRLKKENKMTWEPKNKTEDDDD
Assay: PBM E-score (8-mer, recovered from the published 9-mer minima) (E-score (dimensionless, -0.5 to 0.5)); higher = stronger relative binding preference, active = 0.31 or more
The sample as a whole holds a higher share of hits than the screen did. How many sequences the whole screen found active is unknown.
Let's look at some sequences and their measured PBM E-score.
Note: the reply should be a number with no unit written.

>>> measurement("GAAAGGTA")
0.0535

Param item: GAATGTTA ; param system: Caupolican (Caup) homeodomain DNA-binding domain; output PBM E-score: 0.234

Response field PBM E-score (Caupolican (Caup) homeodomain DNA-binding domain) for item TATTGAAA : 0.117

Caupolican (Caup) homeodomain DNA-binding domain assay, sequence CTAGGGCC , recorded PBM E-score = -0.235

Noted PBM E-score for AGTGATAA , tested on Caupolican (Caup) homeodomain DNA-binding domain: 0.126

Entry GGATGTTA , Caupolican (Caup) homeodomain DNA-binding domain data, PBM E-score value: 0.204

Item: ACGTGTAG | System: Caupolican (Caup) homeodomain DNA-binding domain | PBM E-score: 0.321

Fill in: Caupolican (Caup) homeodomain DNA-binding domain PBM E-score for ATGCCGGC = -0.134

Considering GTGGCGAA , its PBM E-score with Caupolican (Caup) homeodomain DNA-binding domain was recorded as -0.0979

Bench note, Caupolican (Caup) homeodomain DNA-binding domain: entry GCATGTAA , its PBM E-score = 0.409

====

System: Caupolican (Caup) homeodomain DNA-binding domain
Sequence: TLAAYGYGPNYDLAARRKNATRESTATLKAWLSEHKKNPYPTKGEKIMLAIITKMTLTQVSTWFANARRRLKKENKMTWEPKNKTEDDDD
Assay: PBM E-score (8-mer, recovered from the published 9-mer minima) (E-score (dimensionless, -0.5 to 0.5)); Drosophila protein; higher = stronger relative binding preference, active = 0.31 or more
The full list was thinned out, with hits kept by preference. The true hit rate is not given.
Give your call using only these classes: active, inactive

For orientation, consider the following solved cases.
>>> label_class("GCGTGTAC")
"active"
>>> label_class("CACATCTC")
"inactive"
>>> label_class("TATGAACA")
"inactive"
>>> label_class("GATGAACA")
"inactive"
>>> label_class("ACTAGAGC")
"inactive"
>>> label_class("GCGTGTCC")
"inactive"

Task item: Any idea what this test logged for CCGCATAG ?
Reply: inactive

Task item: Which outcome did this test record for the sequence CAAATGTA ?
Reply: inactive

Task item: Assay outcome for AAAATGTT : what was it?
Reply: inactive

Task item: Could you kindly confirm the outcome this assay logged for AATGAACA ?
Reply: active

Task item: Kindly provide the recorded test outcome for the following sequence: CCCTAGAA
Reply: inactive
